# Test Summary: DUSP6 inhibitors restoring Erk phosphorylation by chemical complementation, primary imaging in DUSP6-transfected HeLa (AID 609)
# Assay Conditions: HeLa MKP-3 transfected, phospho-Erk imaging KS statistic; measured here: nuclear c-Myc green intensity z-score; at 10 µM; cells stimulated with TPA for 15 min
This section presents molecules with their documented z-score values.
Give a plain numeric answer without units written out.

Sample answers from the record:
{"columns": ["Molecule", "z-score"],
 "data": [
  ["COC(=O)CNc1nc(-c2cccnc2)nc2ccccc12", 1.95],
  ["Cc1ccc(N(CC(O)CN2CCCC2)S(=O)(=O)c2ccc(C)cc2)cc1 (centres undefined)", -1.19],
  ["CCCC(=O)O[C@]1(C(=O)CCl)[C@@H](C)C[C@H]2[C@@H]3CCC4=CC(=O)C=C[C@]4(C)[C@@]3(F)C(=O)C[C@@]21C", 0.587]
]}

Could you now look at the following molecule, please?
Task: Would you mind telling me what z-score value was observed for CCC(C(=O)OCCN(CC)CC)c1ccccc1 (centres undefined) ?
Result: 1.04

====

# Test Summary: inhibitors of Chlamydomonas gravitaxis, primary screen, whole organism, Chlamydomonas reinhardtii, WT vs cilia-less mutant, absorbance, 96-well (AID 463189);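 note: 0% = wild type cc124 cells in DMSO and 100% = ciliumless bld1 mutant cells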
# Assay Conditions: OD600 absorbance, 2 days, at 10 µM, stronger effect = higher value
Metric Name: inhibition (%)
Please give a number only; it is taken to be in %.

Here's what some known entries look like.
{"columns": ["Compound", "inhibition / %"],
 "data": [
  ["Cc1ccc(N2C(=O)[C@@H]3[C@H](C2=O)C2CCCN2[C@@H]3C(=O)c2ccccc2)cc1 (stereo partly specified)", 0.279],
  ["COC(=O)c1cc(S(=O)(=O)N2CCOCC2)c(N2CCOCC2)cc1N1CCOCC1", 23.9],
  ["O=C1CCC(=O)N1c1nc2nc(-c3ccccc3)cc(-c3ccccc3)n2n1", 46.1],
  ["COCCCNC(=O)c1c(N)n(/N=C/c2cccs2)c2nc3ccccc3nc12", 24.1],
  ["Cc1ccc(N(CC(O)CN2CCCC2)S(=O)(=O)c2ccc(C)cc2)cc1 (stereo unspecified)", 7.07]
]}

Task: Fill in the blank: the reported inhibition of O=c1[nH]c(CN2CCCCC2)nc2c1C1(CCCCC1)Cc1ccccc1-2 is ____.
Result: -10.4

Task: Value lookup for inhibition; key = O=C(c1ccco1)N1CCN(c2ncnc3c2[nH]c2ccccc23)CC1
Result: -4.22

Task: May I ask what inhibition has been recorded for CCOC(=O)c1ccc2nc(NC(NC(C)=O)(C(=O)OC)C(F)(F)F)sc2c1 (stereo unspecified) ?
Result: -10.3

Task: Item under review: COc1ccc(CCNC2CC(C)N(C)CC2C)cc1OC (stereo unspecified) . Reported inhibition?
Result: 12.3

Task: // inhibition lookup, key: Cc1c(C)c2cc(Cl)c(O)c(CN3CCCCC3)c2oc1=O
Result: 20.3

Task: What inhibition value was documented for this compound, CSC1=C(C#N)C(C)CC(=O)N1 (stereo unspecified) ?
Result: 19.4

====

# Test Summary: DUSP6 inhibitors restoring Erk phosphorylation by chemical complementation, primary imaging in DUSP6-transfected HeLa (AID 609)
# Assay Conditions: HeLa MKP-3 transfected, phospho-Erk imaging KS statistic; measured here: cell density z-score; at 10 µM; cells stimulated with TPA for 15 min
Kindly return condition met if reported z-score is no lower than 0.8; return condition not met if it is lower.

Task: Determine whether this compound has z-score no lower than 0.8: CC(C)Cc1nc(N2CCN(C(=O)c3ccco3)CC2)c(C#N)c2c1CCC2
Result: condition not met

Task: Textbook exercise: given the entry CN(C)CCNc1nc(-c2ccco2)c2c(c1C#N)CC(C)(C)OC2 , state whether its z-score is greater than or equal to 0.8.
Result: condition not met
